# shrunken log2 fold change listing for each entry below
- Tested on: Escherichia coli TOP10
- procedure-summary: shrunken log2 fold change of peptide-encoding DNA abundance (4.5 h post-induction vs induction); higher = less antimicrobial activity (less host growth inhibition)
- run-conditions: time post-induction: 4.5 h; library: site-saturation at positions 5, 18, 19, 20
property-measured: shrunken log2 fold change

seq-string: RRIRVRPPRLPRPRPRPASMPRP
assay-target: Escherichia coli TOP10
result-value: 0.0106
--
seq-string: RRIRCRPPRLPRPRPRPCPLPRP
assay-target: Escherichia coli TOP10
result-value: -0.433
--
seq-string: RRIRMRPPRLPRPRPRPTIGPRP
assay-target: Escherichia coli TOP10
result-value: 0.277
--
seq-string: RRIRWRPPRLPRPRPRPANLPRP
assay-target: Escherichia coli TOP10
result-value: -0.285
--
seq-string: RRIRSRPPRLPRPRPRPGTHPRP
assay-target: Escherichia coli TOP10
result-value: -0.146
--
seq-string: RRIRYRPPRLPRPRPRPQFDPRP
assay-target: Escherichia coli TOP10
result-value: -0.0286
--
seq-string: RRIRERPPRLPRPRPRPRREPRP
assay-target: Escherichia coli TOP10
result-value: 0.0467
--
seq-string: RRIRSRPPRLPRPRPRPNYWPRP
assay-target: Escherichia coli TOP10
result-value: -0.143
--
seq-string: RRIRHRPPRLPRPRPRPQDSPRP
assay-target: Escherichia coli TOP10
result-value: -0.00865
--
seq-string: RRIRARPPRLPRPRPRPLIHPRP
assay-target: Escherichia coli TOP10
result-value: -0.117
--
seq-string: RRIRNRPPRLPRPRPRPSPKPRP
assay-target: Escherichia coli TOP10
result-value: 0.191
--
seq-string: RRIRCRPPRLPRPRPRPQWLPRP
assay-target: Escherichia coli TOP10
result-value: -0.133
--
seq-string: RRIRARPPRLPRPRPRPDAHPRP
assay-target: Escherichia coli TOP10
result-value: 0.876
--
seq-string: RRIRFRPPRLPRPRPRPWHLPRP
assay-target: Escherichia coli TOP10
result-value: -0.0307
--
seq-string: RRIRHRPPRLPRPRPRPTGDPRP
assay-target: Escherichia coli TOP10
result-value: 0.208

---

- Tested on: Escherichia coli TOP10
- procedure-summary: shrunken log2 fold change of peptide-encoding DNA abundance (4.5 h post-induction vs induction); higher = less antimicrobial activity (less host growth inhibition)
- run-conditions: time post-induction: 4.5 h; library: site-saturation at positions 5, 18, 19, 20
Each entry falls into one class according to its shrunken log2 fold change; the ranges are bottom: < -0.04; middle: ≥ -0.04 and < 0.2; top: ≥ 0.2

seq-string: RRIRARPPRLPRPRPRPNLQPRP
assay-target: Escherichia coli TOP10
classification: middle

seq-string: RRIRMRPPRLPRPRPRPSCKPRP
assay-target: Escherichia coli TOP10
classification: middle

seq-string: RRIRARPPRLPRPRPRPVELPRP
assay-target: Escherichia coli TOP10
classification: middle

seq-string: RRIRVRPPRLPRPRPRPGVGPRP
assay-target: Escherichia coli TOP10
classification: top

seq-string: RRIRARPPRLPRPRPRPYDRPRP
assay-target: Escherichia coli TOP10
classification: middle

seq-string: RRIRIRPPRLPRPRPRPPHMPRP
assay-target: Escherichia coli TOP10
classification: bottom

seq-string: RRIRFRPPRLPRPRPRPTLWPRP
assay-target: Escherichia coli TOP10
classification: top

seq-string: RRIRERPPRLPRPRPRPYDVPRP
assay-target: Escherichia coli TOP10
classification: middle

seq-string: RRIRIRPPRLPRPRPRPLQSPRP
assay-target: Escherichia coli TOP10
classification: middle

seq-string: RRIRARPPRLPRPRPRPRWDPRP
assay-target: Escherichia coli TOP10
classification: top

seq-string: RRIRFRPPRLPRPRPRPMKQPRP
assay-target: Escherichia coli TOP10
classification: bottom

seq-string: RRIRTRPPRLPRPRPRPFTGPRP
assay-target: Escherichia coli TOP10
classification: bottom

seq-string: RRIRARPPRLPRPRPRPVDGPRP
assay-target: Escherichia coli TOP10
classification: top

seq-string: RRIRQRPPRLPRPRPRPAHYPRP
assay-target: Escherichia coli TOP10
classification: bottom

seq-string: RRIRPRPPRLPRPRPRPLSHPRP
assay-target: Escherichia coli TOP10;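 further: peptides expressed intracellularly from a pBAD plasmid library in pooled LB shake-flask culture, induced with 0.3% L-arabinose, DNA abundance read by NGS, three biological replicates, DESeq2 with apeglm shrinkage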
classification: bottom
